Experiment: In vitro microsomal stability, rat
Assay type: in vitro ADME
Conditions: Rat Microsome, same batch, 45 min
# key: entry, value: Microsomal stability, % remaining
Unit % implied. Number only.

> print(dat)
                                   compound  reported
1  CC(C)(C)C[C@H]1N[C@@H](C(=O)NCC[C@H](O)CN2CC[C@@H](O)C2)[C@H](c2cccc(Cl)c2)[C@@]12C(=O)Nc1cc(Cl)c(F)cc12     71.89

Request: Reported Microsomal stability, % remaining, compound CC(O)C(O)CCNC(=O)[C@@H]1N[C@H](CC(C)(C)C)[C@]2(C(=O)Nc3cc(Cl)c(F)cc32)[C@H]1c1cccc(Cl)c1 (some centres unmarked) : ____
Result: 34.31

Request: How about this compound: `CC(C)(C)C[C@H]1N[C@@H](C(=O)NCC[C@H](O)CNC(C)(C)C)[C@H](c2cccc(Cl)c2)[C@@]12C(=O)Nc1cc(Cl)c(F)cc12`
Result: 66.08

Request: `CC(C)(C)C[C@H]1N[C@@H](C(=O)NCC[C@H](O)CN2CCCC2)[C@H](c2cccc(Cl)c2)[C@@]12C(=O)Nc1cc(Cl)c(F)cc12`
Result: 65.40

Request: // repeat for CC(C)(C)C[C@H]1N[C@@H](C(=O)NCCC(C)(O)CO)[C@H](c2cccc(Cl)c2)[C@@]12C(=O)Nc1cc(Cl)c(F)cc12 (some centres unmarked) and report
Result: 69.33

----------
Experiment: In vitro microsomal stability, rat
Format: in vitro ADME
Details: Table 17, 6 min
recorded.endpoint: % of compound remaining when incubated in rat liver microsomes
Give your result as the value with the unit written after it.

> print(dat)
                                   compound  reported
1  CC(C)(C)C[C@H]1N[C@@H](C(N)=O)[C@H](c2cccc(Cl)c2)[C@@]12C(=O)Nc1cc(Cl)c(F)cc12     80.4%
2  CC(C)N1CCN(CCCNC(=O)[C@@H]2N[C@H](CC(C)(C)C)[C@]3(C(=O)Nc4cc(Cl)ccc43)[C@H]2c2cccc(Cl)c2F)CC1     59.6%
3  CC(C)(C)C[C@H]1N[C@@H](C(=O)NCCCN2CCCC2)[C@H](c2cccc(Cl)c2F)[C@@]12C(=O)Nc1cc(Cl)ccc12     86.1%
4  CC(C)(C)C[C@H]1N[C@@H](C(=O)NCCN2CCCC2)[C@H](c2cccc(Cl)c2F)[C@@]12C(=O)Nc1cc(Cl)c(F)cc12     97.3%
5  CN1CCN(CCCNC(=O)[C@@H]2N[C@H](CC(C)(C)C)[C@]3(C(=O)Nc4cc(Cl)ccc43)[C@H]2c2cccc(Cl)c2F)CC1     70.9%
6  CC(C)(C)C[C@H]1N[C@@H](C(=O)NCCCN2CCN(C3CC3)CC2)[C@H](c2cccc(Cl)c2F)[C@@]12C(=O)Nc1cc(Cl)ccc12 [MI-519-47]     61.1%

Request: Can you share its % of compound remaining when incubated in rat liver microsomes? I mean this compound: CC(C)(C)C[C@H]1N[C@@H](C(=O)NCCCN2CCN(C3CC3)CC2)[C@H](c2cccc(Cl)c2F)[C@@]12C(=O)Nc1cc(Cl)ccc12 [MI-519-48]
Result: 64.8%

Request: Again, but for `CC(C)(C)C[C@H]1N[C@@H](C(=O)NCCN2CCNCC2)[C@H](c2cccc(Cl)c2)[C@@]12C(=O)Nc1cc(Cl)c(F)cc12`
Result: 69.7%

Request: Can you handle `CC(C)(C)C[C@H]1N[C@@H](C(=O)NCCCN2CCCCC2)[C@H](c2cccc(Cl)c2F)[C@@]12C(=O)Nc1cc(Cl)ccc12` next?
Result: 74.7%

Request: Continue with `CN1CCN(CCNC(=O)[C@@H]2N[C@H](CC(C)(C)C)[C@]3(C(=O)Nc4cc(Cl)c(F)cc43)[C@H]2c2cccc(Cl)c2)CC1`
Result: 58.4%
